PROCEDURE DETAILS: Solubility assay in DI water
Format: physicochemical
MEASUREMENT PARAMETERS: thermodynamic from solid, HCl salts, visual, stepwise dilution from 200 mg/mL, sonication and vortex
Experimental: In order to determine the aqueous solubility of the compounds indicated, the HCl salts of the following compounds were incubated at 200 mg/mL in DI water followed by sonication for 60 seconds and then vortex stirring for 60 seconds. If insoluble material was observed, the sample was diluted to 150, 100, 50, 25, or 20 mg/mL until no insoluble material was observed. […]

{"COMPOUND": "CC(C)[C@@H]1CC[C@@H](C)C[C@H]1C(=O)NCc1ccc(N2CCNCC2)cc1.Cl.Cl [Compound 10]", "solubility at 30 min": "≥ 200 mg/mL"}
{"COMPOUND": "CC(C)[C@@H]1CC[C@@H](C)C[C@H]1C(=O)NCc1ccc(CN2CCNCC2)cc1.Cl.Cl [Compound 15]", "solubility at 30 min": "≥ 200 mg/mL"}

---

PROCEDURE DETAILS: Solution state stability assay
Type: physicochemical
MEASUREMENT PARAMETERS: pH = ~5.0 (0.2 M aqueous sodium citrate/citric acid buffer), 50° C., HPLC

{"TEST SMILES": "CC(C)[C@@H]1CC[C@@H](C)C[C@H]1OC(=O)N(C)c1cccc(CN)c1", "% degradation at 28 days": "~24.3%"}
{"TEST SMILES": "CC(C)[C@@H]1CC[C@@H](C)C[C@H]1OC(=O)Nc1cccc(CN)c1", "% degradation at 28 days": "~36.2%"}
{"TEST SMILES": "CC(C)[C@@H]1CC[C@@H](C)C[C@H]1C(=O)N(C)c1cccc(CN)c1", "% degradation at 28 days": "~23.5%"}
{"TEST SMILES": "CC(C)[C@@H]1CC[C@@H](C)C[C@H]1OCC(=O)N(C)c1cccc(CN)c1", "% degradation at 28 days": "~0.4%"}
{"TEST SMILES": "CC(C)[C@@H]1CC[C@@H](C)C[C@H]1C(=O)NCc1ccc(CN)cc1.Cl", "% degradation at 28 days": "~7.1%"}

---

Overview of recorded pEC50 for various compounds
TEST TARGET: human TRPM8 receptor expressed in transfected 293H cells (Homo sapiens)
Construct: expressed in transfected cells; host or cells: 293H cells
Sequence (Q7Z2W7 whole entry): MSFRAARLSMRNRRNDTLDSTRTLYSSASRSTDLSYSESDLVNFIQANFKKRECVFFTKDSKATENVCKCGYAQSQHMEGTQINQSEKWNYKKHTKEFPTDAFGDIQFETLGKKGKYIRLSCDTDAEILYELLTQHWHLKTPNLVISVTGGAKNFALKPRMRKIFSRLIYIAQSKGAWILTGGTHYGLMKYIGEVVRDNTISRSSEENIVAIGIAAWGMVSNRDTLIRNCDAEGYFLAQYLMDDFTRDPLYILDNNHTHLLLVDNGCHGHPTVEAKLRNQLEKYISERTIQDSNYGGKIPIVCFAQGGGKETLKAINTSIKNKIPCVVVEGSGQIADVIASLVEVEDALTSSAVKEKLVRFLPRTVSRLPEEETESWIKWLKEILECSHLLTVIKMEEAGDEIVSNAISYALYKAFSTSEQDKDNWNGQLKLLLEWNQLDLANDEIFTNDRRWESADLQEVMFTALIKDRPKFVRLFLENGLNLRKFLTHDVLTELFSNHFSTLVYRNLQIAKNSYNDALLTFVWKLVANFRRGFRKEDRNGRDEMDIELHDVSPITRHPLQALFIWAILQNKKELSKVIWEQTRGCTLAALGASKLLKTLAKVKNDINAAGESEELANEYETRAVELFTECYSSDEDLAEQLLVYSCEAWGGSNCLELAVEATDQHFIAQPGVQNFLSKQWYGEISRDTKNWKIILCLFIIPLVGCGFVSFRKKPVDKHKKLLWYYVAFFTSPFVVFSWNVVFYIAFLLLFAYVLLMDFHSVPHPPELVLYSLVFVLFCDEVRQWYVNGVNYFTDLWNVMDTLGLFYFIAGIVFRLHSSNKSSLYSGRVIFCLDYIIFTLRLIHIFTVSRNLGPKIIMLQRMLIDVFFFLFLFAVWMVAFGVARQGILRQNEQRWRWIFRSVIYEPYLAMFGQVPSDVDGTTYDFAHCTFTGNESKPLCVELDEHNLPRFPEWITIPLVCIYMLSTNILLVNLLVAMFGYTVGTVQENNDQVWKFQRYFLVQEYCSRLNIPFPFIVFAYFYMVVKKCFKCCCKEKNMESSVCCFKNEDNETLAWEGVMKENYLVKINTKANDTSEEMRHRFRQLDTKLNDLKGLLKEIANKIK
PROCEDURE DETAILS: TRPM8 Human Transient Potential Ion Channel Cell Based Agonist Calcium Flux Assay (FLIPR)
MEASUREMENT PARAMETERS: Ca2+ mobilization, fluorometric detection, 293H cells; response relative to 3 μM icilin; read-out: TRPM8 agonist EC50
pEC50: −log10 of the molar value. Structures can show the parent of a compound that is named as a salt.
REPORTED METRIC: pEC50

{"COMPOUND": "CC(C)[C@@H]1CC[C@@H](C)C[C@H]1C(=O)NCc1ccc(CN)cc1F [Compound 14, hydrochloride]", "REPORTED METRIC": "pEC50", "QUANTITATIVE RESULT": 7.02}
{"COMPOUND": "CC(C)[C@@H]1CC[C@@H](C)C[C@H]1C(=O)NCc1ccc(CCN)cc1 [Compound 12, hydrochloride]", "REPORTED METRIC": "pEC50", "QUANTITATIVE RESULT": 6.70}
{"COMPOUND": "CC(N)c1ccc(CNC(=O)[C@@H]2C[C@H](C)CC[C@H]2C(C)C)cc1 (some centres unmarked) [Compound 13, hydrochloride]", "REPORTED METRIC": "pEC50", "QUANTITATIVE RESULT": 6.82}
{"COMPOUND": "CC(C)[C@@H]1CC[C@@H](C)C[C@H]1C(=O)NCc1ccc(C2CCNCC2)cc1.Cl [Compound 16, hydrochloride]", "REPORTED METRIC": "pEC50", "QUANTITATIVE RESULT": 6.46}
{"COMPOUND": "CC(C)[C@@H]1CC[C@@H](C)C[C@H]1C(=O)NCc1ccc(N2CCNCC2)cc1.Cl.Cl [Compound 10, dihydrochloride]", "REPORTED METRIC": "pEC50", "QUANTITATIVE RESULT": 6.96}
{"COMPOUND": "CC(C)[C@@H]1CC[C@@H](C)C[C@H]1C(=O)NCc1ccc(CN(C)Cc2ccccc2)cc1 [Compound 19, hydrochloride]", "REPORTED METRIC": "pEC50", "QUANTITATIVE RESULT": 4.46}
{"COMPOUND": "CC(C)[C@@H]1CC[C@@H](C)C[C@H]1C(=O)NCc1cccc(N2CCNCC2)c1 [Compound 5, dihydrochloride]", "REPORTED METRIC": "pEC50", "QUANTITATIVE RESULT": 6.66}
{"COMPOUND": "CC(C)[C@@H]1CC[C@@H](C)C[C@H]1C(=O)N(C)Cc1cccc(CN(C)C)c1.Cl [Compound 3, hydrochloride]", "REPORTED METRIC": "pEC50", "QUANTITATIVE RESULT": 6.12}
{"COMPOUND": "CC(C)[C@@H]1CC[C@@H](C)C[C@H]1C(=O)NCc1ccc2c(c1)CCNC2 [Compound 11, hydrochloride]", "REPORTED METRIC": "pEC50", "QUANTITATIVE RESULT": 6.77}
{"COMPOUND": "CC(C)[C@@H]1CC[C@@H](C)C[C@H]1C(=O)NCc1cccc(N2CCN(C(=O)CN)CC2)c1 [Compound 6, dihydrochloride]", "REPORTED METRIC": "pEC50", "QUANTITATIVE RESULT": 6.42}
{"COMPOUND": "CC(C)[C@@H]1CC[C@@H](C)C[C@H]1C(=O)NCc1ccc(CNC(=O)CN)cc1 [Compound 7, hydrochloride]", "REPORTED METRIC": "pEC50", "QUANTITATIVE RESULT": 6.29}
{"COMPOUND": "CC(C)[C@@H]1CC[C@@H](C)C[C@H]1C(=O)NCc1ccc(COC2CCNCC2)cc1 [Compound 18, hydrochloride]", "REPORTED METRIC": "pEC50", "QUANTITATIVE RESULT": 6.68}
{"COMPOUND": "CC(C)[C@@H]1CC[C@@H](C)C[C@H]1OCC(=O)NCc1ccc(CN)cc1 [Compound 2, hydrochloride]", "REPORTED METRIC": "pEC50", "QUANTITATIVE RESULT": 5.48}
{"COMPOUND": "CC(C)[C@@H]1CC[C@@H](C)C[C@H]1C(=O)NCc1ccc(CN)cc1.Cl [Compound 4, hydrochloride]", "REPORTED METRIC": "pEC50", "QUANTITATIVE RESULT": 7.00}
